Origin of values: ChEMBL document CHEMBL4840315

Target: Fatty-acid amide hydrolase 1 (Homo sapiens)
Sequence (O00519 whole entry): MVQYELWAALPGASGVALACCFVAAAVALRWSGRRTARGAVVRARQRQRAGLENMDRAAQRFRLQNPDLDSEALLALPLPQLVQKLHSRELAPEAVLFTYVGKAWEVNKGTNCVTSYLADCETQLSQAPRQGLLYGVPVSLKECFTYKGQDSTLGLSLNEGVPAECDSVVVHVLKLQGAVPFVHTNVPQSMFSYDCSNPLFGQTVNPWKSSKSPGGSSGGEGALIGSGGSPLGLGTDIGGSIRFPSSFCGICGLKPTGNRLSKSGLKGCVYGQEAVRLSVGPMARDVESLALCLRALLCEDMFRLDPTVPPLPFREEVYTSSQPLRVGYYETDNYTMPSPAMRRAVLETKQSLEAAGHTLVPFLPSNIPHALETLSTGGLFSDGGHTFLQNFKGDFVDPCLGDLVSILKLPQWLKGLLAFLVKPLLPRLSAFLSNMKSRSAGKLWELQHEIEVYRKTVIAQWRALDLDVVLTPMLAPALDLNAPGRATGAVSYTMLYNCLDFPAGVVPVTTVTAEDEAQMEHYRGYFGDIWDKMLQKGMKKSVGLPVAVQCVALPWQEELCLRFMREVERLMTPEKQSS
Experiment: Inhibition of FAAH (unknown origin) in human U-937 cells using [ethanolamine-1-3H]AEA as substrate preincubated for 30 mins followed by substrate addition measured after 15 mins by liquid scintillation spectroscopy
quantity.name: IC50

- molecule: "CCCCCc1cc(O)c2c(c1)OC(C)(C)[C@@H]1CCC(C)=C[C@@H]21 [DRONABINOL]"
  IC50: "43.6 µM"
- molecule: "CCCCCc1cc(O)c2c(c1)OC(C)(C)[C@@H]1CCC(C)=C[C@H]21"
  IC50: "> 80 µM"

Then there is this molecule:
Req: I'd like to know its IC50. The molecule in question is `CCCCCc1cc(O)c2c(c1)OC(C)(C)[C@H]1CCC(C)=C[C@@H]21`
Resp: 36.3 µM

----------
Entries and their IC50
target: Lysophosphatidylserine lipase ABHD12 (Homo sapiens, UniProt Q8N2K0); experiment: Inhibition of human ABHD12 transfected in HEK293 cells using 2-OG as substrate preincubated for 30 mins followed by substrate addition measured after 5 mins by liquid scintillation spectroscopy
Sequence (Q8N2K0 whole entry): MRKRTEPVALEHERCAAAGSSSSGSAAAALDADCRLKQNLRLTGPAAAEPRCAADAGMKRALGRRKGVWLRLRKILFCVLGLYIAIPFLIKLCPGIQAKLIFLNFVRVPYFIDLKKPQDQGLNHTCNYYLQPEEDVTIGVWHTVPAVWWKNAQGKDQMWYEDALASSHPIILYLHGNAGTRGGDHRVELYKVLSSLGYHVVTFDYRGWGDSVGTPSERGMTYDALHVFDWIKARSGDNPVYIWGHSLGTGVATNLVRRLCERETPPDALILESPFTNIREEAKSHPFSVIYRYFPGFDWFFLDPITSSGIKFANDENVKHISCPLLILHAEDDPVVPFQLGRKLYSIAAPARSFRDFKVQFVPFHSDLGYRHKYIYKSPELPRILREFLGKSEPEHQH
State the answer as a number, implicitly in µM.

- molecule: "CCCCCc1cc(O)c2c(c1)OC(C)(C)[C@@H]1CCC(C)=C[C@H]21"
  IC50 (µM): 28.8
- molecule: "CCCCCc1cc(O)c2c(c1)OC(C)(C)[C@H]1CCC(C)=C[C@@H]21"
  IC50 (µM): 14.1

Req: I'd like to know its IC50. The molecule in question is CCCCCc1cc(O)c2c(c1)OC(C)(C)[C@@H]1CCC(C)=C[C@@H]21 [DRONABINOL]
Resp: 11.6
